targetSystem: HLA-B*48:01
protocolSummary: IEDB peptide-MHC binding, purified MHC/direct/fluorescence; filed as Kd, often an IC50 or EC50 that approximates it; bounds were set here for any values at or beyond the usual limits of such assays
conditionInfo: source organism: Vibrio cholerae
endpoint: Kd

Any idea what Kd was measured for `IVKQGRDAL` ? ≥ 20 µM

====

targetSystem: HLA-B*51:01
protocolSummary: IEDB peptide-MHC binding, purified MHC/competitive/radioactivity; filed as Kd, often an IC50 or EC50 that approximates it; bounds were set here for any values at or beyond the usual limits of such assays
conditionInfo: source organism: Dengue virus 2 Jamaica/1409/1983
endpoint: pKd
Please treat pKd as minus the base-10 logarithm of the molar concentration.

# lookup: pKd of `IPITAAAWYL` 5.21

How about `FSPGTSGSPI` ? 4.89

The reported measurements were obtained from the Immune Epitope Database (IEDB).
